// provenance: patent US20120023600A1

Molecular target: T1, cynomolgus DKK1 (cynomolgus monkey (Macaca fascicularis), UniProt A0A7N9IE82 32-266)
T1 construct: also called cyno DKK1; monkey DKK1 (Novartis)
T1 sequence: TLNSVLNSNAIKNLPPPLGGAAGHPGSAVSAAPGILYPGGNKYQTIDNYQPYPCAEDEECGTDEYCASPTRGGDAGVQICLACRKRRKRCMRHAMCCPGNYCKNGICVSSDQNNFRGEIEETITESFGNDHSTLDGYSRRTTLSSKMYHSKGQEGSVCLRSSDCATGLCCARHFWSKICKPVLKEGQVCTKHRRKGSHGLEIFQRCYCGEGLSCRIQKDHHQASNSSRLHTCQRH
Assay: solution equilibrium titration (SET), ECL (BioVeris), Fab
REPORTED ENDPOINT: pKd
Formally, pKd is defined as -log10 of the concentration c, with c in mol/L.

# BINDER, pKd
records = [
    ("MOR04952 (Fab, V domains shown) VH: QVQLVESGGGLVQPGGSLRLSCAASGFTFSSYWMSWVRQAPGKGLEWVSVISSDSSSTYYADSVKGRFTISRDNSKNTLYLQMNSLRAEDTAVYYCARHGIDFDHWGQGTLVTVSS VL: DIALTQPASVSGSPGQSITISCTGTSSDLGGYNYVSWYQQHPGKAPKLMIYDVNNRPSGVSNRFSGSKSGNTASLTISGLQAEDEADYYCQSYDSPTDSVVFGGGTKLTVLG", 10.24),
]

Pending binder:
pKd lookup needed for MOR04913 (Fab, V domains shown) VH: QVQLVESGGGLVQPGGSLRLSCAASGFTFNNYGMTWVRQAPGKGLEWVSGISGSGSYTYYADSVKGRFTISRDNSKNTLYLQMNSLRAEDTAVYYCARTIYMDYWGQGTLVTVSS VL: DIVLTQSPATLSLSPGERATLSCRASQNLFSPYLAWYQQKPGQAPRLLIYGASNRATGVPARFSGSGSGTDFTLTISSLEPEDFAVYYCQQYMTLPLTFGQGTKVEINR , thanks.
10.29
